- STUDY_SYSTEM: GABA-A receptor; anion channel
- TEST: In vitro inhibition of [3H]diazepam binding to benzodiazepine receptor in rat cerebral cortical membrane
MEASUREMENT_TYPE: log10(Ki) (log10 of the value in µM)
In our notation, the value equals log10 of Ki in µM.

So, COC(=O)C1Cc2c([nH]c3ccccc23)C(CO)N1 (stereo in doubt; 17) ? Its log10(Ki) was 0.70

So, "COC(=O)c1cc2c([nH]c3ccccc32)c(-c2ccccc2)n1" ? Its log10(Ki) was 0.59

So, "CCc1nc(C(=O)OC)cc2c1[nH]c1ccccc12" ? Its log10(Ki) was 0.88

So, COC(=O)C1Cc2c([nH]c3ccc(O)cc23)CN1 (configuration not stated) ? Its log10(Ki) was -0.24

So, COC(=O)C1Cc2c([nH]c3ccccc23)C(CO)N1 (stereo in doubt; 18) ? Its log10(Ki) was -0.29

So, c1ccc2c(c1)[nH]c1cnccc12 [NORHARMANE] ? Its log10(Ki) was 0.21

The values you see were collected from ChEMBL document CHEMBL1122149.
